For each of the binders below, state its Kd.
# MEASURED TARGET: T1, Hu HER3: CD33-[Human HER3, residues 20-640]-TAG (human, UniProt P21860 20-640)
# T1 construct: also called hu HER3-Tag; HER3-Tag; not shown: C-terminal TAG (e.g., FLAG TAG)
# T1 sequence (P21860 20-640): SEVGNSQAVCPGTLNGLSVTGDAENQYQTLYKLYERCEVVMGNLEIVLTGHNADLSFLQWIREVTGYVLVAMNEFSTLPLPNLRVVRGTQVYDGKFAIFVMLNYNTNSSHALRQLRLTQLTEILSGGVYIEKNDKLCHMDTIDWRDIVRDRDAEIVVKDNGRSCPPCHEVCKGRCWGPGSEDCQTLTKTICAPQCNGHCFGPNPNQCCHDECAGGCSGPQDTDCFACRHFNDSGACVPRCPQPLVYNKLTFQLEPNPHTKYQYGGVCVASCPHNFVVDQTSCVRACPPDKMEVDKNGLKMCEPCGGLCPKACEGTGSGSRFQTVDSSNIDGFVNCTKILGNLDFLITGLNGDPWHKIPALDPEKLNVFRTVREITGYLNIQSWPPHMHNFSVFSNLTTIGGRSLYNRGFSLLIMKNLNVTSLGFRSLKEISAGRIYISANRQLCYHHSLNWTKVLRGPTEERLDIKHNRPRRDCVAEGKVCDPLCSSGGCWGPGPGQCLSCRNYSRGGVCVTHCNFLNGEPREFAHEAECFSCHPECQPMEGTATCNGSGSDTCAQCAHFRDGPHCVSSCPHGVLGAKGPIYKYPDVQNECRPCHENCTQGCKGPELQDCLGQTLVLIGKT
# PROTOCOL NOTES: SET, IgG vs soluble HER3-Tag
Numbers only, in nM.

Past entries and their recorded results:
| BINDER | VALUE UNITS | Kd |
| --- | --- | --- |
| MOR13870 (antibody, human IgG1, kappa, V domains shown, tested as IgG) VH: QVQLVQSGAEVKKPGESLKISCKGSGYSFSNYWIAWVRQMPGKGLEWMGIIYPGTSDTIYSPSFQGQVTISADKSISTAYLQWSSLKASDTAMYYCARVHIIQPPSAWSYNAMDVWGQGTLVTVSS VL: DIQMTQSPSSLSASVGDRVTITCRASQSISTYLNWYQQKPGKAPKLLIFGASNLQSGVPSRFSGSGSGTDFTLTISSLQPEDFATYYCQQSITELFTFGQGTKVEIKR | nM | 0.173 |
| MOR13762 (antibody, human IgG1, kappa, V domains shown, tested as IgG) VH: QVQLVQSGAEVKKPGESLKISCKGSGYSFTNTWVAWVRQMPGKGLEWMGIIYPGQSDTIYSPSFQGQVTISADKSISTAYLQWSSLKASDTAMYYCARVHIIQPPSAWSYNAMDVWGQGTLVTVSS VL: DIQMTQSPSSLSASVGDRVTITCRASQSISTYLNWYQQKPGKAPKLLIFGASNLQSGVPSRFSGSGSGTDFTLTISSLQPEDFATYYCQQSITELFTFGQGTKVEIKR | nM | 0.025 |

Please turn your attention to the following entry.
Problem: Supply measured Kd of MOR12509 (antibody, human IgG1, kappa, V domains shown, tested as IgG) VH: QVQLVQSGAEVKKPGESLKISCKGSGYSFTNSWVAWVRQMPGKGLEWMGIIYPGNSDTIYSPSFQGQVTISADKSISTAYLQWSSLKASDTAMYYCARVHIIQPPSAWSYNAMDVWGQGTLVTVSS VL: DIQMTQSPSSLSASVGDRVTITCRASQSITHYLNWYQQKPGKAPKLLIFGASNLQSGVPSRFSGSGSGTDFTLTISSLQPEDFATYYCQQAFVDPSTTFGQGTKVEIKR in your reply.
Solution: 0.078

Origin of the recorded values: patent US20130273029A1
